- subjectOfTest: CDK16 (Homo sapiens, UniProt Q00536)
- Construct: Whole cell extracts were prepared using RIPA buffer; endogenous in cells; host or cells: MV-4-11
- Sequence (Q00536 whole entry): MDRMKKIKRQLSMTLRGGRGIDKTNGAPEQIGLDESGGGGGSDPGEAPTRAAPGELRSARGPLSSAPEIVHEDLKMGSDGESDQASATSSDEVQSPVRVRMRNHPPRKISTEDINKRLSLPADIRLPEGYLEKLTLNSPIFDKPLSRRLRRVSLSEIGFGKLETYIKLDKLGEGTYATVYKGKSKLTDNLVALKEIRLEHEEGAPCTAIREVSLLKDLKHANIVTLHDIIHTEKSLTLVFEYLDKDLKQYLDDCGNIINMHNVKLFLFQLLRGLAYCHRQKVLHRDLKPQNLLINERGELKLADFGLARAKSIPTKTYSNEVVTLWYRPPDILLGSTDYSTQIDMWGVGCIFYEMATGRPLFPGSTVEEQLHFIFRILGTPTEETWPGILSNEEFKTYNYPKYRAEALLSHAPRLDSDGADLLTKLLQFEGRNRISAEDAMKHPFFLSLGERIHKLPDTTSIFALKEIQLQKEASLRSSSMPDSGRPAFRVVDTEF
- assayDetails: CDK16 degradation assay (Western blot, MV-4-11 cells)
- Type: cell-based
- conditionsUsed: MV4-11, 0.1 μM, 6-8 h
measuredMetric: Dmax at 0.1 µM

Here is how some molecules turned out for Dmax at 0.1 µM.
# molecule, subjectOfTest, experimentalValue
measured = [
    ("CC(C)(C)c1cnc(CSc2cnc(NC(=O)C3CCN(CC(=O)NCCOCCOCCNCC(=O)NCc4cc5c(s4)C(=O)N(C4CCC(=O)NC4=O)C5)CC3)s2)o1 (stereo not drawn) [Compound 34]", "CDK16 (Homo sapiens, UniProt Q00536)", "25 to 50%"),
    ("Cn1ncc(-c2nc(N[C@H]3CC[C@H](NCC(=O)NCCCCNCC(=O)NCc4cc5c(s4)C(=O)N(C4CCC(=O)NC4=O)C5=O)CC3)ncc2Cl)c1CC1CC1 (stereo partly drawn) [Compound 36]", "CDK16 (Homo sapiens, UniProt Q00536)", "< 25%"),
    ("CN(CCNC(=O)CN1CCC(C(=O)Nc2ncc(SCc3ncc(C(C)(C)C)o3)s2)CC1)CCNC(=O)NCc1cc2c(s1)C(=O)N(C1CCC(=O)NC1=O)C2 (stereo not drawn) [Compound 15]", "CDK16 (Homo sapiens, UniProt Q00536)", "< 25%"),
    ("CC(C)(C)c1cnc(CSc2cnc(NC(=O)C3CCN(CC(=O)NCCOCCOCCOCCNCC(=O)NCc4scc5c4CN(C4CCC(=O)NC4=O)C5=O)CC3)s2)o1 (stereo not drawn) [Compound 41]", "CDK16 (Homo sapiens, UniProt Q00536)", "< 25%"),
    ("Cn1ncc(-c2nc(N[C@H]3CC[C@H](NCCCCCCNC(=O)NCc4cc5c(s4)C(=O)N(C4CCC(=O)NC4=O)C5)CC3)ncc2Cl)c1CC1CC1 (stereo partly drawn) [Compound 24]", "CDK16 (Homo sapiens, UniProt Q00536)", "50 to 75%"),
]

Quick one: give measured Dmax at 0.1 µM for Cn1ncc(-c2nc(N[C@H]3CC[C@H](NCC(=O)NCCCCNCC(=O)NCc4cc5c(s4)C(=O)N(C4CCC(=O)NC4=O)C5)CC3)ncc2F)c1CC1CC1 (stereo partly drawn) [Compound 29]
25 to 50%

Please report Dmax at 0.1 µM for the following molecule: Cn1ncc(-c2nc(N[C@H]3CC[C@H](NCC(=O)NCCCCCNC(=O)NCc4cc5c(s4)C(=O)N(C4CCC(=O)NC4=O)C5)CC3)ncc2F)c1CC1CC1 (stereo partly drawn) [Compound 17]
50 to 75%

====

- subjectOfTest: GSPT1 (Homo sapiens, UniProt P15170+Q96SW2)
- Construct: Whole cell extracts were prepared using RIPA buffer; endogenous in cells; host or cells: MV-4-11
- Sequence (P15170 whole entry): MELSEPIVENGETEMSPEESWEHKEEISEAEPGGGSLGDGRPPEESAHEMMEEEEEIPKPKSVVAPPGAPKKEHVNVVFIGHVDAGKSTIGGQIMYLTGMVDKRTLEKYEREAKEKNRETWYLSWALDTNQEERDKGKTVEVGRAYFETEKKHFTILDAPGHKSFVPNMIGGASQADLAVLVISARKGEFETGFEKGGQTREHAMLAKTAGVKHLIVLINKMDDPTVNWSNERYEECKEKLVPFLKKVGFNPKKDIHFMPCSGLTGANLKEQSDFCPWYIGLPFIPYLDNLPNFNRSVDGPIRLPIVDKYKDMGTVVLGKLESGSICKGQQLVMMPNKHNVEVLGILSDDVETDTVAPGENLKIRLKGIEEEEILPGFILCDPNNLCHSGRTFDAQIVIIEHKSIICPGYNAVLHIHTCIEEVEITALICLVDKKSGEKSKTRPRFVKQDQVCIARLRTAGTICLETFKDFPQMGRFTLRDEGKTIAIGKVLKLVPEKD
- Sequence (Q96SW2 whole entry): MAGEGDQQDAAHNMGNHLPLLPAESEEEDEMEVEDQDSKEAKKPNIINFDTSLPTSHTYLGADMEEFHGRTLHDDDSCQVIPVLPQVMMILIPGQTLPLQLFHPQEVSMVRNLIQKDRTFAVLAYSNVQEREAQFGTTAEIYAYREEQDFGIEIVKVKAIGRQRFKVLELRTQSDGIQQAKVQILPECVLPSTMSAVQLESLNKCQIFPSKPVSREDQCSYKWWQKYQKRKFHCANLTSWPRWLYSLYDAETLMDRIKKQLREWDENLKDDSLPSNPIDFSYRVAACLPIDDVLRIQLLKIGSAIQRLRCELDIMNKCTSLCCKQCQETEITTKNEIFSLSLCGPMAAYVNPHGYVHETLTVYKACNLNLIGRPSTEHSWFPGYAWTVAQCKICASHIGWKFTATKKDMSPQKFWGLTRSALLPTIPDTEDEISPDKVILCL
- Sequence (Q16531 whole entry partner): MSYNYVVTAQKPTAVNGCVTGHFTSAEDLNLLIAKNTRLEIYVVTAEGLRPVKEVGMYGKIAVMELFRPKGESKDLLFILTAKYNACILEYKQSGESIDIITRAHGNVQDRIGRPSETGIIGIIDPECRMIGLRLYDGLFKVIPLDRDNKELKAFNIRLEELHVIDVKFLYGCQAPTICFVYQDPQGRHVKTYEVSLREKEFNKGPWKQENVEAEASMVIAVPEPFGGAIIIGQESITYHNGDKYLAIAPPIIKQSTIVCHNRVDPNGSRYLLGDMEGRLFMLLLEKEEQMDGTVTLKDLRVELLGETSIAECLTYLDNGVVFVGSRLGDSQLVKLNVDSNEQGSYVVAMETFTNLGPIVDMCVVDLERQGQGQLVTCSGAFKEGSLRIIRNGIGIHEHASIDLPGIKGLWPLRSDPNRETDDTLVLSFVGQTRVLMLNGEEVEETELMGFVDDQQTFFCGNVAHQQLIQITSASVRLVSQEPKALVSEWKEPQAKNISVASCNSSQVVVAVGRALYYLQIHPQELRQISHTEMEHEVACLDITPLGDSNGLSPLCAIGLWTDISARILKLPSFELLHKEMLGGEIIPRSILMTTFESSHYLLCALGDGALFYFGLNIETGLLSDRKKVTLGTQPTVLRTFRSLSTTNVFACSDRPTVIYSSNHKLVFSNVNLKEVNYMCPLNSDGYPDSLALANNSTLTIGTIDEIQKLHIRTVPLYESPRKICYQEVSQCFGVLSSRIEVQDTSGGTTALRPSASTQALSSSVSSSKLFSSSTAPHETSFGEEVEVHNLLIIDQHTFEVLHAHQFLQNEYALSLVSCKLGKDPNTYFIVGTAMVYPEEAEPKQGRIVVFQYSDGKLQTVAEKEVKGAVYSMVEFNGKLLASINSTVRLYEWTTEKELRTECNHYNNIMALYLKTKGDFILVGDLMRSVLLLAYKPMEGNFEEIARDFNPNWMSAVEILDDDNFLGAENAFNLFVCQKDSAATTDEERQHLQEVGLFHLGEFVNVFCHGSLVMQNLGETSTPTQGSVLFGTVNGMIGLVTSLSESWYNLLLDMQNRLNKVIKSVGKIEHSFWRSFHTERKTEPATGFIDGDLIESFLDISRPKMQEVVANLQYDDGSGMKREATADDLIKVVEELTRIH
- assayDetails: GSPT1 degradation assay (Western blot, MV-4-11 cells)
- Format: cell-based
- conditionsUsed: MV4-11, 6-8 h
measuredMetric: Dmax at 1 µM

# molecule, Dmax at 1 µM
measured = [
    ("CC(C)(C)c1cnc(CSc2cnc(NC(=O)C3CCN(CC(=O)NCCOCCOCCNCC(=O)NCc4cc5c(s4)C(=O)N(C4CCC(=O)NC4=O)C5)CC3)s2)o1 (stereo not drawn) [Compound 34]", "50 to 75%"),
    ("Cn1ncc(-c2nc(N[C@H]3CC[C@H](NCCOCCOCCNCc4ccc(OCc5scc6c5CN([C@H]5CCC(=O)NC5=O)C6=O)cc4)CC3)ncc2Cl)c1CC1CC1 [Compound 67]", "50 to 75%"),
    ("Cn1ncc(-c2nc(N[C@H]3CC[C@H](NCC(=O)NCCNC(=O)NCc4cc5c(s4)C(=O)N(C4CCC(=O)NC4=O)C5)CC3)ncc2Cl)c1CC1CC1 (stereo partly drawn) [Compound 45]", "25 to 50%"),
    ("Cn1ncc(-c2nc(N[C@H]3CC[C@H](NCC(=O)NCCCCNCC(=O)NCc4cc5c(s4)C(=O)N(C4CCC(=O)NC4=O)C5)CC3)ncc2Cl)c1CC1CC1 (stereo partly drawn) [Compound 35]", "≥ 75%"),
    ("Cn1ncc(-c2nc(N[C@H]3CC[C@H](NCC(=O)NCCCCNCC(=O)NCc4scc5c4CN(C4CCC(=O)NC4=O)C5=O)CC3)ncc2Cl)c1CC1CC1 (stereo partly drawn) [Compound 38]", "50 to 75%"),
]

Attention now turns to another entry.
Kindly indicate its recorded Dmax at 1 µM. Item: Cn1ncc(-c2cc(N[C@H]3CC[C@H](NCC(=O)NCCNCC(=O)NCc4cc5c(s4)C(=O)N(C4CCC(=O)NC4=O)C5)CC3)ncc2F)c1CC1CC1 (stereo partly drawn) [Compound 63]
< 25%

====

- System: TNF-α
- assayDetails: TNF-α inhibition assay, LPS-induced PBMCs / CD14+ monocytes (Meso Scale)
- Format: cell-based
- conditionsUsed: 1 h pretreatment, 100 ng/mL LPS 18-24 h
Each entry below lists one item and its recorded inhibition at 1 µM value.

# compound, experimentalValue
data = [
    ("CC(C)(C)c1cnc(CSc2cnc(NC(=O)C3CCN(CC(=O)NCCOCCNC(=O)NCc4ccc5c(c4)CN([C@H]4CCCC(=O)NC4=O)C5=O)CC3)s2)o1 [Compound 6]", "< 50%"),
    ("CC(C)(C)c1cnc(CSc2cnc(NC(=O)C3CCN(CCOCCOCCNC(=O)NCc4cc5c(s4)C(=O)N(C4CCC(=O)NC4=O)C5)CC3)s2)o1 (stereo not shown) [Compound 19]", "70 to 90%"),
]

Please look at this compound and report its inhibition at 1 µM: CC(C)(C)c1cnc(CSc2cnc(NC(=O)C3CCN(CC(=O)NCCOCCNC(=O)NCc4cc5c(s4)C(=O)N(C4CCC(=O)NC4=O)C5)CC3)s2)o1 (stereo not shown) [Compound 3]
70 to 90%

Name the recorded inhibition at 1 µM of the compound listed here: Cn1ncc(-c2nc(N[C@H]3CC[C@H](NC(=O)CCCCCCNC(=O)NCc4cc5c(s4)C(=O)N(C4CCC(=O)NC4=O)C5)CC3)ncc2Cl)c1CC1CC1 (stereo partly shown) [Compound 5]
70 to 90%

Tell us which inhibition at 1 µM value is on record for Cn1ncc(-c2nc(N[C@H]3CC[C@H](NCC(=O)NCCOCCOCCOCCNC(=O)NCc4cc5c(s4)C(=O)N(C4CCC(=O)NC4=O)C5)CC3)ncc2Cl)c1CC1CC1 (stereo partly shown) [Compound 46]
50 to 70%

Please report the measured inhibition at 1 µM for CC(C)(C)c1cnc(CSc2cnc(NC(=O)C3CCN(CC(=O)NCCOCCOCCOCCNCC(=O)NCc4cc5c(s4)C(=O)N(C4CCC(=O)NC4=O)C5)CC3)s2)o1 (stereo not shown) [Compound 42]
< 50%

Find the measured inhibition at 1 µM of Cn1ncc(-c2nc(N[C@H]3CC[C@H](NCC(=O)NCCOCCOCC(=O)NCc4ccc(COc5cccc6c5CN(C5CCC(=O)NC5=O)C6=O)cc4)CC3)ncc2Cl)c1CC1CC1 (stereo partly shown) [Compound 28] and report it.
> 90%

====

Listed below: Dmax at 0.1 µM values for each entry.
- subjectOfTest: CDK16 (Homo sapiens)
- Construct: Whole cell extracts were prepared using RIPA buffer; endogenous in cells; host or cells: MV-4-11
- assayDetails: CDK16 degradation assay (Western blot, MV-4-11 cells)
- Type: cell-based
- conditionsUsed: MV4-11, 0.1 μM, 6-8 h

# molecule, measuredMetric, experimentalValue
rows = [
    ("Cn1ncc(-c2nc(N[C@H]3CC[C@H](NCCCCCCCCNC(=O)NCc4cc5c(s4)C(=O)N(C4CCC(=O)NC4=O)C5)CC3)ncc2F)c1CC1CC1 (some centres unmarked) [Compound 23]", "Dmax at 0.1 µM", "50 to 75%"),
    ("CC(C)(C)c1cnc(CSc2cnc(NC(=O)C3CCN(CC(=O)NCCOCCOCCOCCNCC(=O)NCc4cc5c(s4)C(=O)N(C4CCC(=O)NC4=O)C5)CC3)s2)o1 (centres unmarked) [Compound 42]", "Dmax at 0.1 µM", "< 25%"),
    ("CC(C)(C)c1cnc(CSc2cnc(NC(=O)C3CCN(CC(=O)NCCOCCOCCNC(=O)NCc4cc5c(s4)C(=O)N(C4CCC(=O)NC4=O)C5)CC3)s2)o1 (centres unmarked) [Compound 13]", "Dmax at 0.1 µM", "< 25%"),
    ("CC(C)(C)c1cnc(CSc2cnc(NC(=O)C3CCN(CC(=O)NCCCNC(=O)NCc4cc5c(s4)C(=O)N(C4CCC(=O)NC4=O)C5)CC3)s2)o1 (centres unmarked) [Compound 12]", "Dmax at 0.1 µM", "25 to 50%"),
]

Consider now this further molecule.
Supply recorded Dmax at 0.1 µM for CC(C)(C)c1cnc(CSc2cnc(NC(=O)C3CCN(CC(=O)NCCOCCOCCNCC(=O)NCc4scc5c4CN(C4CCC(=O)NC4=O)C5=O)CC3)s2)o1 (centres unmarked) [Compound 26] here.
25 to 50%
